Test system: C-4-II
Protocol summary: SANGER: Inhibition of human C-4-II cell growth in a cell viability assay.
Assay type: functional, cell-based
Run parameters: Homo sapiens, C-4-II
Property measured: IC50 (nM)
Number only, in nM; omit the unit.

Lookup: Which IC50 is listed for COc1cccc2c1C(=O)c1c(O)c3c(c(O)c1C2=O)C[C@@](O)(C(=O)CO)C[C@@H]3O[C@H]1C[C@H](N)[C@H](O)[C@H](C)O1 ?
Found: 473

---

Test system: IST-MEL1;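 note: growth inhibition of the cell line, read out with a cell viability assay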
Protocol summary: cells
Format: functional, cell-based, Homo sapiens
Run parameters: ist-mel1
Description: SANGER: Inhibition of human IST-MEL1 cell growth in a cell viability assay.
Property measured: IC50 (nM)
Number only, in nM; omit the unit.

Lookup: Which IC50 is listed for BLEOMYCIN ?
Found: 280
